Test system: Caupolican (Caup) homeodomain DNA-binding domain
Sequence: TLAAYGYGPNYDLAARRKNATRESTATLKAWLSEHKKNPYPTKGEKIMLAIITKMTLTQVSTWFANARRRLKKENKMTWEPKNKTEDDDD
Test: PBM E-score (8-mer, recovered from the published 9-mer minima) (E-score (dimensionless, -0.5 to 0.5)); Drosophila protein; higher = stronger relative binding preference, active = 0.31 or more
The sample as a whole holds a higher share of hits than the screen did. The true hit rate is not given.

>  <SEQUENCE_STRING>
GGCTTGCA

>  <PBM E-score>
-0.0355

$$$$
>  <SEQUENCE_STRING>
GATGGGGC

>  <PBM E-score>
-0.192

$$$$
>  <SEQUENCE_STRING>
ACATCACA

>  <PBM E-score>
0.334

$$$$
>  <SEQUENCE_STRING>
ATAGCTCA

>  <PBM E-score>
-0.0365

$$$$
>  <SEQUENCE_STRING>
AAGGTACC

>  <PBM E-score>
-0.127

$$$$
>  <SEQUENCE_STRING>
GGTAGCGA

>  <PBM E-score>
-0.0452

$$$$
>  <SEQUENCE_STRING>
ACATCATA

>  <PBM E-score>
0.318

$$$$
>  <SEQUENCE_STRING>
AGCACGTG

>  <PBM E-score>
0.082

$$$$
>  <SEQUENCE_STRING>
ACATGCGT

>  <PBM E-score>
0.346

$$$$
>  <SEQUENCE_STRING>
AAACAAAA

>  <PBM E-score>
0.189

$$$$
>  <SEQUENCE_STRING>
ACACCCGC

>  <PBM E-score>
-0.0419

$$$$
>  <SEQUENCE_STRING>
TAACTAAA

>  <PBM E-score>
0.109

$$$$
>  <SEQUENCE_STRING>
ACCCGATC

>  <PBM E-score>
-0.0489

$$$$
>  <SEQUENCE_STRING>
GAATCGGA

>  <PBM E-score>
-0.0551

$$$$
>  <SEQUENCE_STRING>
ATAGCTTG

>  <PBM E-score>
0.0692

$$$$
>  <SEQUENCE_STRING>
TAACTATA

>  <PBM E-score>
0.18

$$$$
>  <SEQUENCE_STRING>
ATGCGAAA

>  <PBM E-score>
0.0128

$$$$
>  <SEQUENCE_STRING>
AAAGCCCC

>  <PBM E-score>
-0.238

$$$$
>  <SEQUENCE_STRING>
AAAGAAGC

>  <PBM E-score>
-0.0635

$$$$
>  <SEQUENCE_STRING>
GCATGCAA

>  <PBM E-score>
0.0861

$$$$
>  <SEQUENCE_STRING>
CGGCCCTC

>  <PBM E-score>
-0.331

$$$$
>  <SEQUENCE_STRING>
GACATGGC

>  <PBM E-score>
0.314

$$$$
>  <SEQUENCE_STRING>
ACCGACTA

>  <PBM E-score>
0.0195

$$$$
>  <SEQUENCE_STRING>
GCATGCAC

>  <PBM E-score>
0.0682

$$$$
>  <SEQUENCE_STRING>
AAACTACC

>  <PBM E-score>
0.168

$$$$
>  <SEQUENCE_STRING>
GTTTAGAA

>  <PBM E-score>
0.121

$$$$
>  <SEQUENCE_STRING>
ATCGCACC

>  <PBM E-score>
-0.0473

$$$$
>  <SEQUENCE_STRING>
GCAGCGAC

>  <PBM E-score>
-0.118

$$$$
>  <SEQUENCE_STRING>
ACGACAGT

>  <PBM E-score>
0.094

$$$$
>  <SEQUENCE_STRING>
ACATGCGC

>  <PBM E-score>
0.288

$$$$
>  <SEQUENCE_STRING>
ACATCAAT

>  <PBM E-score>
0.316

$$$$
>  <SEQUENCE_STRING>
ACCGCACA

>  <PBM E-score>
-0.00685

$$$$
>  <SEQUENCE_STRING>
TCATGCAA

>  <PBM E-score>
0.146

$$$$
>  <SEQUENCE_STRING>
ATTAGCGG

>  <PBM E-score>
-0.0813

$$$$
>  <SEQUENCE_STRING>
AGAGCCTA

>  <PBM E-score>
-0.0924

$$$$
>  <SEQUENCE_STRING>
CAACTACA

>  <PBM E-score>
0.287

$$$$
>  <SEQUENCE_STRING>
ACATGCAT

>  <PBM E-score>
0.376

$$$$
>  <SEQUENCE_STRING>
CTATTTTC

>  <PBM E-score>
0.101

$$$$
>  <SEQUENCE_STRING>
ACATCATC

>  <PBM E-score>
0.251

$$$$
>  <SEQUENCE_STRING>
AGTATCTG

>  <PBM E-score>
0.00127

$$$$
>  <SEQUENCE_STRING>
AAACTACT

>  <PBM E-score>
0.236

$$$$
>  <SEQUENCE_STRING>
ACATCAAA

>  <PBM E-score>
0.26

$$$$
>  <SEQUENCE_STRING>
GGGAGTAA

>  <PBM E-score>
0.0271

$$$$
>  <SEQUENCE_STRING>
ATGTTGCC

>  <PBM E-score>
0.121

$$$$
>  <SEQUENCE_STRING>
ACCCCTCA

>  <PBM E-score>
-0.091

$$$$
>  <SEQUENCE_STRING>
CTGTTGTC

>  <PBM E-score>
0.256

$$$$
